test system: C13; test: Cytotoxicity against human C13 cells after 72 hrs; assay type: functional, cell-based; conditions: C13, 72 h

- COMPOUND: "O=c1[nH]cc(F)c(=O)[nH]1 [FLUOROURACIL]"
  IC50: "12.1 µM"
